Tested on: Wolbachia pipientis
Assay: Anti-Wolbachia Cell-Based Screen
Format: functional
Parameters: scale not given: in the data most compounds retested in dose-response had high values
Conditions: 5 µM
About 13,000 (27%) of roughly 48,000 compounds showed an effect of 50% or more. The list shows a part of the results.
quantity-name: Percent Effect (%)

INSERT INTO measurements (molecule, scale_unit, measured) VALUES
  ('CN(Cc1nc2ccccc2c(=O)[nH]1)C[C@@H]1CCCN2CCCC[C@H]12', '%', -19.12),
  ('Cn1cc(CN2CC[C@@H]3[C@@H](CCC(=O)N3CCc3c[nH]cn3)C2)cn1', '%', 6.547),
  ('CN(Cc1ccccc1Cl)C(=O)c1cc(CN2CCC(O)CC2)on1', '%', -7.03),
  ('O=C(C1CCC2(CCN(c3ncccn3)CC2)CO1)N1CCCC1 (stereo not given)', '%', 10.33),
  ('Cc1cc(C(=O)N(C)Cc2ccccc2OCC(C)C)cc(=O)[nH]1', '%', 5.839);

====

System: Wolbachia pipientis
Assay: Anti-Wolbachia Cell-Based Screen
Format: functional
Design: scale not given: in the data most compounds retested in dose-response had high values
Settings: 5 µM
Hit rate of the full screen: of about 48,000 compounds, about 13,000 (27%) showed an effect of 50% or more. This is one part of the list.
quantity-name: Percent Effect (%)

INSERT INTO results (compound, study_target, measured) VALUES
  ('CCN1CCC(N2CCC(C(=O)N(C)C)CC2)CC1.O=C(O)C(F)(F)F.O=C(O)C(F)(F)F', 'Wolbachia pipientis', 104.7),
  ('CCCSCC(=O)N1CCN(c2ccc(C)cc2)CC1C (stereo not given)', 'Wolbachia pipientis', -1.95),
  ('CNS(=O)(=O)CCCN1CCN(C(C)c2cccnc2)CC1 (stereo not given)', 'Wolbachia pipientis', 7.44),
  ('CC(c1ccc(Cl)cc1)N1CCN(CCS(C)(=O)=O)CC1 (stereo not given)', 'Wolbachia pipientis', 6.907),
  ('CN(C)C(=O)C1CCN(C2CCN(CC3CC3)CC2)CC1.O=C(O)C(F)(F)F.O=C(O)C(F)(F)F', 'Wolbachia pipientis', 109),
  ('CN(C)C(=O)CN1CC[C@H]2CN(C3CCOCC3)C[C@@H]2C1=O.O=C(O)C(F)(F)F', 'Wolbachia pipientis', -33.67),
  ('CNS(=O)(=O)CCCN1CCCN(Cc2ccccc2)CC1C (stereo not given)', 'Wolbachia pipientis', -3.956),
  ('CC(C)CN1CCC(N2CCC(C(=O)N(C)C)CC2)CC1.O=C(O)C(F)(F)F.O=C(O)C(F)(F)F', 'Wolbachia pipientis', 126.3),
  ('O=C(O)c1ccc2c(c1)C1(CCCCC1)CN2C(=O)c1cccs1', 'Wolbachia pipientis', -9.46),
  ('N#Cc1cccc(CS(=O)(=O)NCCC(O)c2ccccc2)c1 (stereo not given)', 'Wolbachia pipientis', 7.655);

====

Tested on: Wolbachia pipientis
Test: Anti-Wolbachia Cell-Based Screen
Format: functional
Parameters: scale not given: in the data most compounds retested in dose-response had high values
Settings: 5 µM
Out of some 48,000 compounds screened, about 13,000 (27%) showed an effect of 50% or more. The list shows a part of the results.
quantity-name: Percent Effect (%)

INSERT INTO results (molecule, quantity_name, measured) VALUES
  ('CCCn1ccnc1SCC(=O)NC(Cc1ccccc1)C(C)=O (stereo unspecified)', 'Percent Effect', 22.6),
  ('CN(C)C(=O)CN1C[C@@H]2CC[C@H](C1)N(Cc1cc(F)ccc1F)C2', 'Percent Effect', 15.49),
  ('O=C(Nc1ccc(F)cc1)N(CCC(F)(F)F)C[C@H](O)CO', 'Percent Effect', -0.3648),
  ('Cc1ccc2c(c1)nc1n2[C@@H](CNC(=O)c2cccnc2)COC1', 'Percent Effect', -3.716),
  ('CC(C)N(Cc1ccccc1)C(=O)NCCNC(=O)c1cccnc1', 'Percent Effect', -12.62),
  ('O=C(NC[C@@H]1CCCO1)c1ccc(S(=O)(=O)N[C@@H]2CCNC2)cc1', 'Percent Effect', -1.141),
  ('COCCN1CCC2(CCCN(C(=O)c3cnoc3C)C2)C1=O (stereo unspecified)', 'Percent Effect', 5.935),
  ('CN(Cc1ccc(Cl)s1)C(=O)NCc1nnc2n1CCC2', 'Percent Effect', 3.09),
  ('CCOc1ncccc1Cn1cc(-c2cncnc2)nn1', 'Percent Effect', -4.97),
  ('CC(C)NC(=O)NCc1nnc2n1C(C(=O)N(C)C)CC2 (stereo unspecified)', 'Percent Effect', 107),
  ('Cc1cccc(CN2CCCC(O)(CNCc3cccc(F)c3)C2=O)c1 (stereo unspecified)', 'Percent Effect', -1.044);

====

Measured Percent Effect by item
Test system: Wolbachia pipientis
Experiment: Anti-Wolbachia Cell-Based Screen
Format: functional
Set-up: scale not given: in the data most compounds retested in dose-response had high values
Conditions: 5 µM
In all, about 48,000 compounds went through this assay and about 13,000 (27%) showed an effect of 50% or more. The list shows a part of the results.
quantity-name: Percent Effect

INSERT INTO results (test_smiles, measured) VALUES
  ('Cn1cccc1C(=O)N1C[C@@H]2C[C@@H](c3nc(C4CC4)cs3)O[C@@H]2C1.O=C(O)C(F)(F)F', '215.5%'),
  ('O=C(C1CCOCC1)N1C[C@@H]2C[C@@H](c3nc(C4CC4)cs3)O[C@@H]2C1.O=C(O)C(F)(F)F', '2.3%'),
  ('O=C(O)C(F)(F)F.O=C(c1cnccn1)N1C[C@@H]2C[C@@H](c3nc(C4CC4)cs3)O[C@@H]2C1', '97.61%'),
  ('O=C(O)C(F)(F)F.O=C(c1ccnnc1)N1C[C@@H]2C[C@@H](c3nc(C4CC4)cs3)O[C@@H]2C1', '114.8%');

====

Test system: Wolbachia pipientis
Assay: Anti-Wolbachia Cell-Based Screen
Assay type: functional
Design: scale not given: in the data most compounds retested in dose-response had high values
Conditions: 5 µM
Out of some 48,000 compounds screened, about 13,000 (27%) showed an effect of 50% or more. The list shows a part of the results.
Overview of reported Percent Effect across a group of compounds:
quantity-name: Percent Effect (%)

INSERT INTO assay_data (compound, study_target, quantity_name, measured) VALUES
  ('CCN1CC(C(=O)NC(C)(C)CNC(=O)OC(C)(C)C)CC1=O (stereo not given)', 'Wolbachia pipientis', 'Percent Effect', -0.2967),
  ('O=C(O)C(F)(F)F.O=C(O)C(F)(F)F.O=C(O)C(F)(F)F.c1cncc(COCC2CN(Cc3cccnc3)Cc3ccnn3C2)c1 (stereo not given)', 'Wolbachia pipientis', 'Percent Effect', 11.05),
  ('N#Cc1nccnc1NCCC1CCN(CC(F)(F)F)CC1', 'Wolbachia pipientis', 'Percent Effect', -10.09),
  ('CCCc1nc(C(C)(C)NC(=O)C2CC(=O)N(CC3CC3)C2)no1 (stereo not given)', 'Wolbachia pipientis', 'Percent Effect', -6.715),
  ('Cn1cnc2c1C(COCc1cccnc1)N(Cc1ccccc1)CC2 (stereo not given)', 'Wolbachia pipientis', 'Percent Effect', 2.197),
  ('O=C(O)C(F)(F)F.O=C(O)C(F)(F)F.c1cnc(N2CC[C@@H]3O[C@@H](COCc4cccnc4)CC[C@@H]32)nc1', 'Wolbachia pipientis', 'Percent Effect', -9.534),
  ('COc1c(NS(=O)(=O)c2cc(C)ccc2C)c(C)nn1C', 'Wolbachia pipientis', 'Percent Effect', 9.711),
  ('CNC(=O)c1ccc(=O)n(Cc2csc(C(C)(C)C)n2)c1', 'Wolbachia pipientis', 'Percent Effect', 14.6),
  ('CN(C)C(=O)N1CCO[C@@H]2CC(COCc3cccnc3)C[C@H]21.O=C(O)C(F)(F)F (stereo not given in full)', 'Wolbachia pipientis', 'Percent Effect', 103.1),
  ('CN1CCCC(CCC(=O)N2CCc3onc(C(=O)N(C)C)c3C2)C1 (stereo not given)', 'Wolbachia pipientis', 'Percent Effect', 14.32),
  ('COC(=O)C(C)(C)NC(=O)C1CC(=O)N(C)C1 (stereo not given)', 'Wolbachia pipientis', 'Percent Effect', -1.781),
  ('O=C(O)C(F)(F)F.O=C(c1ccccc1-c1ccccc1)N1C[C@@H]2CNC[C@]2(C(=O)O)C1', 'Wolbachia pipientis', 'Percent Effect', 7.106),
  ('CC(C)C(=O)NCc1cccc(N2CCCCC2=O)c1', 'Wolbachia pipientis', 'Percent Effect', -5.894),
  ('Cc1ccoc1C(=O)N1CC[C@H]2OCC[C@@]2(COCc2ccncc2)C1', 'Wolbachia pipientis', 'Percent Effect', -2.681),
  ('Cc1cnc(N2CCO[C@@H]3CC(COCc4cccnc4)C[C@H]32)nc1.O=C(O)C(F)(F)F.O=C(O)C(F)(F)F (stereo not given in full)', 'Wolbachia pipientis', 'Percent Effect', 79.55),
  ('c1cncc(COCC2C[C@@H]3OCCN(Cc4cccnc4)[C@H]3C2)c1 (stereo not given in full)', 'Wolbachia pipientis', 'Percent Effect', 111.6),
  ('CCN1CC(C(=O)NC(C)(C)CC(C)(C)C)CC1=O (stereo not given)', 'Wolbachia pipientis', 'Percent Effect', 2.297),
  ('Fc1ccc(CN2CC[C@H]3O[C@@H](COCc4cccnc4)CC[C@H]32)cc1.O=C(O)C(F)(F)F.O=C(O)C(F)(F)F', 'Wolbachia pipientis', 'Percent Effect', 0.3958),
  ('CN1C[C@@H](NC(=O)CC(C)(C)C)C[C@H]1c1nc(-c2cnccn2)no1', 'Wolbachia pipientis', 'Percent Effect', -6.894),
  ('COC(=O)C(C)(C)NC(=O)C1CC(=O)N(CC2CC2)C1 (stereo not given)', 'Wolbachia pipientis', 'Percent Effect', 110.1);
